system: KIT(V559D) (Homo sapiens, UniProt P10721, V559D)
Construct: purchased Eurofins DiscoverX KINOMEscan (scanTK)
Sequence (P10721 26-976 V559D): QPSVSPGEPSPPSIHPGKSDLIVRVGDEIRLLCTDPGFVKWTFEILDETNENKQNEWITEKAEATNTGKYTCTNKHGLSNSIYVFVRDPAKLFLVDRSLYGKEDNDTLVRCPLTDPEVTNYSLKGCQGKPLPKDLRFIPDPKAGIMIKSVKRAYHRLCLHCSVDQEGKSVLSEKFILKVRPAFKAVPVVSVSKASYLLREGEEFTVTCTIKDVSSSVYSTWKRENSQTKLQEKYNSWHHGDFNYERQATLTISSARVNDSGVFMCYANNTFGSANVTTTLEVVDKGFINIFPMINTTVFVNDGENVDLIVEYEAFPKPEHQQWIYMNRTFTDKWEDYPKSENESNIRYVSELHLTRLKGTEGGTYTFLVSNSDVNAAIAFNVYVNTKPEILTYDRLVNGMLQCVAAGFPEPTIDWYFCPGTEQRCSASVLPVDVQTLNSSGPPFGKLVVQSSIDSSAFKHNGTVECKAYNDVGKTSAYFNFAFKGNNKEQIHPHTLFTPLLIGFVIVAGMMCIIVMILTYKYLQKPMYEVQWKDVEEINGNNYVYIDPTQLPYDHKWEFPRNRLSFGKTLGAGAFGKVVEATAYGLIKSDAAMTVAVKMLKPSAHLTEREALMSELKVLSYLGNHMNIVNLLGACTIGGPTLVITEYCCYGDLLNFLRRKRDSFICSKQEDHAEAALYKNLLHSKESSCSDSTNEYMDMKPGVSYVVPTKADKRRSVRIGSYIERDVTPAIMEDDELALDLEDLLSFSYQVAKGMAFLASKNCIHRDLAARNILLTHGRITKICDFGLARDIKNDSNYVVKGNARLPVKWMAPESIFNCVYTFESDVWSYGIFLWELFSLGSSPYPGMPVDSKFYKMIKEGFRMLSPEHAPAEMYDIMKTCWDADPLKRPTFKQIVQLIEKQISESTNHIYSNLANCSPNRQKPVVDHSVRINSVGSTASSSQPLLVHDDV
assay.comment: KINOMEscan ScanTK
Assay type: binding
experimental.conditions: @1000nM, read-out: %Control
So I've got a bunch of compounds here, and I need their remaining binding at 1 µM values.
Don't forget the unit after the number, please.

Lab note: record remaining binding at 1 µM of CCOC(=O)c1cnc(S(C)(=O)=O)nc1N1CCC[C@@H](n2nc(-c3ccc(Oc4ccccc4)cc3)c3c(N)ncnc32)C1 [Compound 8c] tested on KIT(V559D) (Homo sapiens, UniProt P10721, V559D).
70%

Lab note: record remaining binding at 1 µM of COC(=O)c1cnc(S(C)(=O)=O)nc1N1CCCC(n2nc(-c3ccc(Oc4ccccc4)cc3)c3c(N)ncnc32)C1 (centres unmarked) [Compound 8b] tested on KIT(V559D) (Homo sapiens, UniProt P10721, V559D).
75%

Lab note: record remaining binding at 1 µM of C=CC(=O)N1CCC[C@@H](n2nc(-c3ccc(Oc4ccccc4)cc3)c3c(N)ncnc32)C1 [Compound 1g, Ibrutinib, reference compound] tested on KIT(V559D) (Homo sapiens, UniProt P10721, V559D).
27%

Lab note: record remaining binding at 1 µM of CNC(=O)c1cnc(S(C)(=O)=O)nc1N1CCCC(n2nc(-c3ccc(Oc4ccccc4)cc3)c3c(N)ncnc32)C1 (centres unmarked) [Compound 8d] tested on KIT(V559D) (Homo sapiens, UniProt P10721, V559D).
60%

Lab note: next compound to report on.
Lab note: record remaining binding at 1 µM of Cc1cnc(S(C)(=O)=O)nc1N1CCCC(n2nc(-c3ccc(Oc4ccccc4)cc3)c3c(N)ncnc32)C1 (centres unmarked) [Compound 8a] tested on KIT(V559D) (Homo sapiens, UniProt P10721, V559D).
37%
